The origin of these recorded values is patent US20250020635A1.

- tested_target: PLCγ2-HiBit (Homo sapiens, UniProt P16885)
- Construct: expressed in transfected cells; host or cells: HMC3 cells
- Sequence (P16885 whole entry): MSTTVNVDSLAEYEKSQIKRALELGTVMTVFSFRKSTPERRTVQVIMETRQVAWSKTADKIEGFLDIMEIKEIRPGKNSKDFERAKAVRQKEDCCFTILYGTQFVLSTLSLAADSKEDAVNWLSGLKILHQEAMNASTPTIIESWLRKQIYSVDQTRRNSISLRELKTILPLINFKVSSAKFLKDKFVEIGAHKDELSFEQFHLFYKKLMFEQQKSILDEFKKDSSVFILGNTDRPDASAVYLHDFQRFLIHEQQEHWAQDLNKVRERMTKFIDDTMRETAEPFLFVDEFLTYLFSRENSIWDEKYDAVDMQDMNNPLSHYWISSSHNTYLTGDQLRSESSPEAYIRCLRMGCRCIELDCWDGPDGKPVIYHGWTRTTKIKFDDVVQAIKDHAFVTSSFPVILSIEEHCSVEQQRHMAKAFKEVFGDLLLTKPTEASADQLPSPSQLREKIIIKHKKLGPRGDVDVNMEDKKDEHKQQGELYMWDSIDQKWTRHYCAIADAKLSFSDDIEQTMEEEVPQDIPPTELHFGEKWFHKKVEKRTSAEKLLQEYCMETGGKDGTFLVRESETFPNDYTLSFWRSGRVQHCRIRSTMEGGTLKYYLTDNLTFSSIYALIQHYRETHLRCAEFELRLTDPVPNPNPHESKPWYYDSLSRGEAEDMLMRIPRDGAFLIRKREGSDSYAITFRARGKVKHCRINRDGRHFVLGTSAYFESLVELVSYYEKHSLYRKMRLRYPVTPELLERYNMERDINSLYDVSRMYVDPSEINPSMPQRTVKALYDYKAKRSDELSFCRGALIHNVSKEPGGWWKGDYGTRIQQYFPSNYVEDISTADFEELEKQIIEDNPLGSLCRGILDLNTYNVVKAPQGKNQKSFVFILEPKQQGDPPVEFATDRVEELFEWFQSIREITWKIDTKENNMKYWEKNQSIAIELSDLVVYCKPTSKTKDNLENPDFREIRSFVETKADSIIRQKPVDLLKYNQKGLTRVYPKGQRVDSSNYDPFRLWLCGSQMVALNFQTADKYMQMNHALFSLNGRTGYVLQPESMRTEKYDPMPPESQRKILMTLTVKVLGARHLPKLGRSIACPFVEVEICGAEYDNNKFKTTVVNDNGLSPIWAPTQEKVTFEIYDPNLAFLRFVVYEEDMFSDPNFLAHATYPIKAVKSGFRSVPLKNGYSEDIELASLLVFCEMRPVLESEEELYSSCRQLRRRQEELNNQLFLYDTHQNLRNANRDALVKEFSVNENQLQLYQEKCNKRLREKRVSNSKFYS
- protocol_text: Cellular thermal shift assay (SplitLuc CETSA), PLCγ2-HiBit in HMC3 cells
- Assay type: cell-based
- settings: Table 1; @100
Measured PLCy2-HiBit % @100 of individual entries

molecule	PLCy2-HiBit % @100 (%)
Cc1cc(C)c(S(=O)(=O)Nc2ccccc2C(F)(F)F)c(C)c1 [Compound 2, o-3M3FBS, reference compound]	102
Cc1cc(Br)ccc1S(=O)(=O)Nc1cccc(C(F)(F)F)c1	17
Cc1cccc(NS(=O)(=O)c2c(C)cc(C)cc2C)c1	54
Cc1cc(C)c(S(=O)(=O)Nc2cccc(C(F)(F)F)c2)c(C)c1 [Compound 1, reference compound]	105
O=S(=O)(Nc1ccc(Br)cc1F)c1cccs1	66
Cc1cc(C)c(S(=O)(=O)Nc2cccc(C#N)c2)c(C)c1	96
O=S(=O)(Nc1cccc(C(F)(F)F)c1)c1ccccc1	65
Cc1cc(C)c(S(=O)(=O)Nc2cccc(C(F)F)c2)c(C)c1	78
O=S(=O)(Nc1cccc(C(F)(F)F)c1)c1ccc(Cl)cc1Cl	32
